target: GORASP1, Q9BQQ3; assay: holdup assay; set-up: key: below the threshold = too weak to quantify, mostly under pKd 3.1 to 4; conditions: plain residues with an end cap or a label only (N-terminal biotin on a linker: ahx)
Sequence (Q9BQQ3 1-208): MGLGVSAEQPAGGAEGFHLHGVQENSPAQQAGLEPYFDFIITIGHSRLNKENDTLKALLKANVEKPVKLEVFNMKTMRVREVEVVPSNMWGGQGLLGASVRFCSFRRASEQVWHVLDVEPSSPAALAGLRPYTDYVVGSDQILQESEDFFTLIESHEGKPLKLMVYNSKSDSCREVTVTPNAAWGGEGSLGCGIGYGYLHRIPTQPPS
metric: pKd

// below: answered binders
>  <binder>
QNTDDVQTSF [ACE2, Q9BYF1]

>  <pKd>
below the threshold

$$$$
>  <binder>
HTHSYIETHV [CNKSR2, Q8WXI2]

>  <pKd>
below the threshold

$$$$
>  <binder>
EKQAKGDTEF [CACYBP, Q9HB71]

>  <pKd>
below the threshold

$$$$
>  <binder>
QDEKVKESYV [ABCA1, O95477]

>  <pKd>
3.66

$$$$

Task item: What value of measured pKd is listed for TQKFRASTAL [FRMPD1, Q5SYB0] ?
Reply: 3.51

Task item: Try this binder too: QPRTWLQSPV [RTKN, Q9BST9]
Reply: below the threshold

Task item: Try this binder too: TEAKLTETNA [MYO18A, Q92614]
Reply: below the threshold

Task item: Try this binder too: APSRKLNTEI [TIAM1, Q13009]
Reply: below the threshold

Task item: Try this binder too: TESNLQTSSC [CGN, Q9P2M7]
Reply: below the threshold

These data points were gathered from paper PMC9482650.
